test system: RPMI-8226 leukemia; assay: NCI-60 one-dose screen, 48 h; conditions: 10 µM unless noted
Compounds without any hit were thinned out: in the full panel of roughly 83,000, 20% have a hit. Activity calls are given as the source filed them. How the source made its calls: active means growth percent below 10; inactive means the rest.
Classes used: T for active, F for inactive

molecule	system	class
CC1(C(=O)O)CCC(N)(C(=O)O)C1(C)C (stereo unspecified)	RPMI-8226 leukemia	F
CCN(CC)CCCC(C)Nc1ccnc2cc(Cl)c(SCc3ccccc3)cc12 (stereo unspecified)	RPMI-8226 leukemia	T
O=C1COCCN1c1ccc(NCc2cn(Cc3ccc(F)cc3)c3ccccc23)cc1	RPMI-8226 leukemia	F
COc1ccc2c(c1)c(-c1noc(-c3cn(C)c4ncc(F)cc34)n1)cn2C	RPMI-8226 leukemia	F
Cn1cc(-c2nnc(-c3cn(C)c4ncc(Br)cc34)s2)c2cc(Br)ccc21	RPMI-8226 leukemia	F
CC[C@@](C)(NC(=O)[C@H](C)NC(=O)CCNC(=O)C(C)(C)NC(=O)[C@H](C)NC(=O)[C@@H]1CCCN1C(=O)[C@@](C)(CC)NC(=O)[C@H](Cc1ccccc1)NC(=O)C1CCCN1C(=O)C(C)(C)NC(=O)C1CCCN1C(=O)C(C)(C)NC(C)=O)C(=O)NCCC(=O)N[C@@H](CC(C)C)C(=O)NC(C)(C)C(=O)NCCC(=O)N[C@@H](CC(C)C)C(=O)NC(C)(C)C(=O)NC(C)(C)C(=O)N[C@@H](CC(C)C)C(=O)NCCC(=O)NCO (stereo partly specified)	RPMI-8226 leukemia	T
CCOC(=O)C(=Cc1ccccc1[N+](=O)[O-])C(=O)OCC	RPMI-8226 leukemia	F
C[n+]1c(-c2ccccc2)c2cc(N)ccc2c2ccccc21	RPMI-8226 leukemia	F
O=S(=O)(NCCCNc1nccc(-c2c(-c3cccc(F)c3)nc3occn23)n1)c1cccc2ccccc12	RPMI-8226 leukemia	F
Oc1c(CNCCNCc2cc(Cl)cc(Cc3ccccc3)c2O)cc(Cl)cc1Cc1ccccc1	RPMI-8226 leukemia	F
COc1cc2c(=O)[nH]c3cc([N+](=O)[O-])ccc3c2cc1[N+](=O)[O-]	RPMI-8226 leukemia	F
CCCCN(CC)CC(CC)Nc1cc(OC)cc2cccnc12 (stereo unspecified)	RPMI-8226 leukemia	F
CC(C)=CC/C=C(/C)[C@H]1CC[C@]2(C)[C@@H]1CC[C@@H]1[C@@]3(C)CCC(=O)NC(C)(C)[C@@H]3CC[C@]12C	RPMI-8226 leukemia	T
ClC1=C(Cl)C(Cl)=C(Cl)C1=Cc1ccccc1	RPMI-8226 leukemia	T
Cc1cnc([C@]23CC[C@@H](C)[C@H](C)[C@H]2C2=CC[C@@H]4[C@@]5(C)Cc6c([nH]c7ccccc67)C(C)(C)[C@@H]5CC[C@@]4(C)[C@]2(C)CC3)o1	RPMI-8226 leukemia	F
COc1cc2c(cc1OCCCN1CCN(CCCOc3cc4c(cc3OC)C(=O)N3C[C@H](F)C[C@H]3C=N4)CC1)N=C[C@@H]1C[C@@H](F)CN1C2=O	RPMI-8226 leukemia	T
